Biological target: Torsin-1A-interacting protein 2 (Homo sapiens) (UniProt Q8NFQ8)
Sequence (Q8NFQ8 whole entry, looked up): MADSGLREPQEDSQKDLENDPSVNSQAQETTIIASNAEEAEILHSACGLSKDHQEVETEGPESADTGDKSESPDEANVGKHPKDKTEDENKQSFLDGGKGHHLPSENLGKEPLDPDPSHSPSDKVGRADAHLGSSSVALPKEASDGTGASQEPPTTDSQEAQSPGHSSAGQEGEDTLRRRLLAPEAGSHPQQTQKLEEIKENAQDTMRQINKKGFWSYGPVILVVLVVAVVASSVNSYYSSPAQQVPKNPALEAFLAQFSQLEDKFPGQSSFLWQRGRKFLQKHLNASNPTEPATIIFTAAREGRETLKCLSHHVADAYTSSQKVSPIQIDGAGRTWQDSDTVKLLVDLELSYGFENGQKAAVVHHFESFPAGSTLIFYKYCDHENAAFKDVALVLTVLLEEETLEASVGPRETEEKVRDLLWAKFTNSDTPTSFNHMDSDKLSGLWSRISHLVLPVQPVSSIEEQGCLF
Experiment: LULL1 binders on small-molecule microarray, primary screen, cell lysate, human LULL1 lysate, 635/667 nm fluorescence (AID 1092);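 further: probe is lysate of COS7 cells overexpressing human LULL1; score merges per-feature 667 nm fluorescence with signal-to-noise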
Conditions: hLULL1 lysate binding, 635 nm fluorescence, higher = more signal
observation-type: composite z-score
Please respond with just the number, no unit label.

Need composite z-score, item C[C@H]1COC(=O)[C@@H]2CCCN2C(=O)[C@@H](C)COC(=O)[C@@H]2CCCN2C1=O -0.863

Need composite z-score, item CCCNC(=O)[C@@]1(Sc2ccc(C)cc2)CC(=O)N(Cc2ccccc2Cl)[C@@H]1c1ccc(CO)cc1 1.64

Need composite z-score, item CO[C@]12C=C(Br)[C@@H](C[C@@H]1c1ccccc1)[C@@]1(CO1)C2=O -0.132

Need composite z-score, item O=C1O[C@@H](c2ccccc2)[C@@H](c2ccccc2)N2[C@@H](c3ccc(O)cc3)[C@]3(C(=O)Nc4ccc(C#CC5(O)CCCCCC5)cc43)[C@@H](C(=O)Nc3nc4ccccc4s3)[C@H]12 2.56

Provenance of the data: PubChem BioAssay
